Target: New Delhi metallo-β-lactamase-1 (NDM-1) (Klebsiella pneumoniae, UniProt C7C422, Q123A)
Test: SPR
Property measured: pKd
# reply with the number alone; pKd is -log10 of concentration in mol/L

Query CCCCCCCCCCCCc1ccc(S(=O)(=O)Nc2nncs2)cc1 [PHT427] yields pKd of 3.91
